pIC50: −log10 of the molar value.
Record set: pIC50 | Fibroblast growth factor receptor 2 (Homo sapiens) | literature, multiple sources.

# Compound, Measured Target, pIC50
rows = [
    ("C=CC(=O)NCc1cc2c(cn1)CN(c1c(F)c(OC)cc(OC)c1F)C(=O)C21CCCC1", "Fibroblast growth factor receptor 2 (Homo sapiens)", "< 6.70"),
    ("Cc1cnc(Nc2ccc(C(=O)NCCN3CCOCC3)cc2)nc1Nc1ccc2cn[nH]c2c1", "Fibroblast growth factor receptor 2 (Homo sapiens)", 6.99),
    ("COc1cc(OC)c(F)c(N2Cc3cnc(N)c(CCc4ccccc4)c3N(C)C2=O)c1F", "Fibroblast growth factor receptor 2 (Homo sapiens)", "> 7.00"),
    ("COCC(C)Oc1cc(NC(=O)N2CCCc3cc(CO)c(C=O)nc32)ncc1C#N (racemic)", "Fibroblast growth factor receptor 2 (Homo sapiens)", "< 5.00"),
    ("COCCOc1cc(NC(=O)N2CCCc3ccc(C=O)nc32)ncc1C#N", "Fibroblast growth factor receptor 2 (Homo sapiens)", "< 5.00"),
    ("C=CC(=O)N1C[C@H](O)[C@H](Nc2ncc3cc(-c4c(Cl)c(OC)cc(OC)c4Cl)ccc3n2)C1", "Fibroblast growth factor receptor 2 (Homo sapiens)", 8.09),
    ("COCCNc1cc(NC(=O)N2CCCc3cc(-c4cnc(C)s4)c(C=O)nc32)ncc1C#N", "Fibroblast growth factor receptor 2 (Homo sapiens)", "< 5.00"),
    ("Clc1cccc(Nc2cncc(-c3cncc(NCCCc4cccnc4)c3)n2)c1", "Fibroblast growth factor receptor 2 (Homo sapiens)", 6.53),
    ("C=CC(=O)NCc1cc2c(cn1)CN(c1c(F)c(OC)cc(OC)c1F)C(=O)N2C", "Fibroblast growth factor receptor 2 (Homo sapiens)", "< 6.70"),
    ("COCCNc1cc(NC(=O)N(CCOC)c2cccc(C=O)n2)ncc1C#N", "Fibroblast growth factor receptor 2 (Homo sapiens)", "< 5.00"),
    ("COc1cc(OC)c(Cl)c(-c2ncc3c(-c4ccc5c(c4)CN([C@H]4CC[C@H](O)CC4)C5=O)n[nH]c3n2)c1Cl", "Fibroblast growth factor receptor 2 (Homo sapiens)", "> 7.00"),
    ("C=CC(=O)Nc1cc(N2CCN(CCC(F)(F)F)C(C)C2)ccc1C(=O)Nc1cc(CCc2cc(OC)cc(OC)c2)n[nH]1 (stereo not shown)", "Fibroblast growth factor receptor 2 (Homo sapiens)", 8.39),
    ("COc1cc(OC)c(F)c(-c2ncc3c(-c4ccc5c(c4)CN(S(C)(=O)=O)CC5)n[nH]c3n2)c1F", "Fibroblast growth factor receptor 2 (Homo sapiens)", "> 7.00"),
    ("CCc1c(N)ncc2c1N(C)C(=O)N(c1c(F)c(OC)cc(OC)c1F)C2", "Fibroblast growth factor receptor 2 (Homo sapiens)", "> 7.00"),
    ("COc1cc(OC)c(F)c(N2Cc3cnc(N)c(C#N)c3N(C3CCCC3)C2=O)c1F", "Fibroblast growth factor receptor 2 (Homo sapiens)", "> 7.00"),
    ("Cn1cc(-c2ccc3c(-c4cc(NCC5COC(C)(C)O5)cc(-c5ccc(F)cc5F)c4)cnn3c2)cn1 (stereo not shown)", "Fibroblast growth factor receptor 2 (Homo sapiens)", 8.18),
    ("COCCNc1cc(NC(=O)N2CCCc3cc(CN(C)C(=O)COC)c(C=O)nc32)ncc1C#N", "Fibroblast growth factor receptor 2 (Homo sapiens)", "< 5.00"),
    ("COc1cc(OC)c(F)c(N2Cc3cnc(N)c(-c4cnn(CCO)c4)c3N(C)C2=O)c1F", "Fibroblast growth factor receptor 2 (Homo sapiens)", "> 7.00"),
    ("C=CC(=O)NCc1cc2c(cn1)CN(c1c(F)c(OC)cc(OC)c1F)C(=O)N2c1ccn(C)n1", "Fibroblast growth factor receptor 2 (Homo sapiens)", "< 6.70"),
    ("N#Cc1cnc(NC(=O)N2CCCc3cc(CO)c(C=O)nc32)cc1NCC1CCCOC1 (racemic)", "Fibroblast growth factor receptor 2 (Homo sapiens)", "< 5.00"),
    ("N#Cc1cnc(NC(=O)N2CCCc3cc(CO)c(C=O)nc32)cc1O[C@@H]1CCOC1", "Fibroblast growth factor receptor 2 (Homo sapiens)", "< 5.00"),
    ("CONC(=O)Nc1cc(-c2ccc(F)cc2F)cc(-c2cnn3cc(-c4cnn(C)c4)ccc23)c1", "Fibroblast growth factor receptor 2 (Homo sapiens)", 8.00),
    ("COc1cc(OC)c(F)c(N2Cc3cnc(N)c(C)c3N(c3ccccc3F)C2=O)c1F", "Fibroblast growth factor receptor 2 (Homo sapiens)", "> 7.00"),
    ("C=CC(=O)Nc1cc(N2CCC(F)(F)C2)ccc1C(=O)Nc1cc(CCc2cc(OC)cc(OC)c2)n[nH]1", "Fibroblast growth factor receptor 2 (Homo sapiens)", 8.55),
    ("COc1cc(OC)c(F)c(N2Cc3cnc(N)c(Oc4ccccc4)c3N(C)C2=O)c1F", "Fibroblast growth factor receptor 2 (Homo sapiens)", "> 7.00"),
    ("COc1cc(OC)c(F)c(N2Cc3cnc(NC4CC(F)(F)C4)cc3C3(CC3)C2=O)c1F", "Fibroblast growth factor receptor 2 (Homo sapiens)", "> 7.00"),
    ("COc1cc(OC)c(F)c(N2Cc3cnc(N)c(Cc4ccccc4)c3N(C)C2=O)c1F", "Fibroblast growth factor receptor 2 (Homo sapiens)", "> 7.00"),
    ("C=CC(=O)NCc1cc2c(cn1)CN(c1c(F)c(OC)cc(OC)c1F)C(=O)N2CC1CCN(C(=O)OC)CC1", "Fibroblast growth factor receptor 2 (Homo sapiens)", "< 6.70"),
    ("CC(NC(=O)c1ccc(C2CC2)c(-c2ccc3nc(Nc4cnn(C5CC5)c4)ncc3c2)c1)c1cccc(C(F)(F)F)c1 (stereo not shown)", "Fibroblast growth factor receptor 2 (Homo sapiens)", "< 6.00"),
    ("COc1cc(OC)c(F)c(-c2ncc3c(-c4ccc(N5CCN(C)CC5)cc4)n[nH]c3n2)c1F", "Fibroblast growth factor receptor 2 (Homo sapiens)", "> 7.00"),
    ("COc1cc(OC)c(F)c(-c2cc3[nH]nc(-c4ccc5c(c4)CN(CCC4CCCN4C)C5=O)c3cn2)c1F (stereo not shown)", "Fibroblast growth factor receptor 2 (Homo sapiens)", "> 7.00"),
]
